Ref: the supplement of paper PMC11219838

tested on: Caenorhabditis elegans L1 (N2); experiment: survival and reproduction score of C. elegans L1 (0: 0-10 living worms, 1: 11-20, 2: 21-50, 3: >50, 4: overgrown) (score 0-4); higher = more worms, less nematicidal, active = 1 or less; extreme values may be limits of the assay; conditions: 60 µM; 6 days; temperature: 20 °C
Recorded survival and reproduction score, one value per entry.
The answer should be written as a number, with no unit following it.

Reference set, count: 3
>  <COMPOUND>
Cc1ccc(-c2noc(C3CCCCC3)n2)cc1

>  <TESTED ON>
Caenorhabditis elegans L1 (N2)

>  <survival and reproduction score>
0

$$$$
>  <COMPOUND>
Cc1ccccc1-c1nc(-c2ccccc2Cl)no1

>  <TESTED ON>
Caenorhabditis elegans L1 (N2)

>  <survival and reproduction score>
0

$$$$
>  <COMPOUND>
CC(=O)Nc1ccc(NC(=O)c2ccccc2-c2nc(-c3cccc(C)c3)no2)cc1

>  <TESTED ON>
Caenorhabditis elegans L1 (N2)

>  <survival and reproduction score>
4

$$$$

Qu. Quick one: survival and reproduction score for COc1ccccc1OCc1nc(-c2cccc(C)c2)no1 ?
Ans. 4

Qu. Quick one: survival and reproduction score for CCCCCOC(=O)CSc1nnc(-c2ccc(Cl)cc2Cl)o1 ?
Ans. 4

Qu. Quick one: survival and reproduction score for CCOc1nc(C)ccc1-c1noc(-c2ccccc2F)n1 ?
Ans. 4

Qu. Quick one: survival and reproduction score for COc1ccc(-c2nnc(SCC(=O)c3ccc(C)o3)o2)cc1 ?
Ans. 2

Qu. Quick one: survival and reproduction score for FC(F)(F)c1cccc(-c2noc(-c3ccc4c(c3)OCO4)n2)c1 ?
Ans. 4
